Data credit: patent US9598387B2

target: human D3 dopamine receptor (Homo sapiens (Human), UniProt P35462); test: Whole Cell Adenylyl Cyclase Assay, D3; type: cell-based; settings: inhibition of forskolin (100 μM) stimulated cAMP, normalized to quinpirole; compound conc ≥10× Ki (per compound); mean ± S.E.M.
Sequence (P35462 whole entry): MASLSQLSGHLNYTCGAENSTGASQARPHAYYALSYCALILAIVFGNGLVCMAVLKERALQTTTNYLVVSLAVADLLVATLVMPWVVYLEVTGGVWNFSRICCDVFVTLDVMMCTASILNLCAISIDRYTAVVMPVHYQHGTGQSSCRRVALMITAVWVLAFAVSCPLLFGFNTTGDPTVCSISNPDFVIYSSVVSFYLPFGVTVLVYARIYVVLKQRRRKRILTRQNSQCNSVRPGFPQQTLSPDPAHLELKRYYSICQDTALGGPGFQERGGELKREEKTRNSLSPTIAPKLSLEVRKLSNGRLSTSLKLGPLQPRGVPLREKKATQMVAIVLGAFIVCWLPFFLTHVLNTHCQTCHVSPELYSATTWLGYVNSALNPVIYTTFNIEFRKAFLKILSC
EXPERIMENTAL_ENDPOINT: D3 Cyclase % Inhibition Normalized (%)
One number for each entry, in %.

Fill in D3 Cyclase % Inhibition Normalized for each of the 6 molecules listed.
1. O=C(NCCCCN1CCN(c2cccc(Cl)c2Cl)CC1)N1CCC(c2ccccc2)CC1
2. Cc1nc(N2CCN(CCCCNC(=O)N3CCN(c4ccccc4)CC3)CC2)cc(C(C)(C)C)n1
3. CC(C)(C)c1nc(N2CCN(CCCCNC(=O)N3CCN(c4ccccc4)CC3)CC2)cc(C(F)(F)F)n1
4. CC(C)(C)c1nc(N2CCN(CCCCNC(=O)N3CCN(c4ccccc4)CC3)CC2)c2ccccc2n1
5. Cc1cc(N2CCN(CCCCNC(=O)N3CCN(c4ccccc4)CC3)CC2)nc(C(F)(F)F)n1
6. O=C(NCCCCN1CCN(c2ccnc3ccccc23)CC1)N1CCN(c2ccccc2)CC1

Reply:
78.9
26.4
60.7
61.9
42.4
43.1

====

target: human D2-long dopamine receptor (Homo sapiens (Human)); assay: Radioligand binding (125I-IABN competition), D2; conditions: HEK cell membranes expressing human D2-long
Sequence (P14416 whole entry): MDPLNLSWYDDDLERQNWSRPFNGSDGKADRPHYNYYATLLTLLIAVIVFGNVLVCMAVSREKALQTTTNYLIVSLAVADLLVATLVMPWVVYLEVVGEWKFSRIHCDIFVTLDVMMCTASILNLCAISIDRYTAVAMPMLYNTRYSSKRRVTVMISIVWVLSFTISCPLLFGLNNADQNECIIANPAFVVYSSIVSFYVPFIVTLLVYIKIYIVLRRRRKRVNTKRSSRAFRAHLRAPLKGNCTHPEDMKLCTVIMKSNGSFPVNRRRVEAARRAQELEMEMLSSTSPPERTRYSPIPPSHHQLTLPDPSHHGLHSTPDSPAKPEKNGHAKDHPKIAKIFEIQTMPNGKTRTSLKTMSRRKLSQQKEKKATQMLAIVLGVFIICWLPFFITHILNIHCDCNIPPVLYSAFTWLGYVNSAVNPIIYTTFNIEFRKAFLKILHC
Can you tell me Ki for the items I'm about to list?
Answers are plain numbers, in nM.

The cases that follow already have their Ki on record.
O=C(NCCCCN1CCN(c2ccc3ccccc3n2)CC1)c1cn2cccnc2n1 = 1260
CC(C)(C)c1nc(N2CCN(CCCCNC(=O)N3CCN(c4ccnc5cc(Cl)ccc45)CC3)CC2)cc(C(F)(F)F)n1 = 359
CC(C)(C)c1nc(N2CCN(CCCCNC(=O)N3CCN(c4ccccc4Cl)CC3)CC2)cc(C(F)(F)F)n1 = 738
CC(C)(C)c1nc(N2CCN(CCCCNC(=O)N3CC(c4ccncc4)C3)CC2)cc(C(F)(F)F)n1 = 605

Fill in Ki for each of the 8 compounds listed.
1. COc1ccc2[nH]c3c(c2c1)CN(C(=O)NCCCCN1CCN(c2cc(C(F)(F)F)nc(C(C)(C)C)n2)CC1)CC3
2. CC(C)(C)c1nc(N2CCN(CCCCNC(=O)N3CCc4c([nH]c5ccccc45)C3)CC2)cc(C(F)(F)F)n1
3. O=C(NCCCCN1CCN(c2ncnc3ccccc23)CC1)c1cn2ccccc2n1
4. Cc1nc(N2CCN(CCCCNC(=O)c3cn4ccccc4n3)CC2)cc(C(C)(C)C)n1
5. CC(C)(C)c1nc(N2CCN(CCCCNC(=O)N3CCc4ccccc43)CC2)cc(C(F)(F)F)n1
6. CC(C)(C)c1nc(N2CCN(CCCCNC(=O)N3CCc4[nH]c5ccc(C#N)cc5c4C3)CC2)cc(C(F)(F)F)n1
7. CC(C)(C)c1nc(N2CCN(CCCCNC(=O)N3CCc4[nH]c5ccc(C(F)(F)F)cc5c4C3)CC2)cc(C(F)(F)F)n1
8. CC(C)(C)c1nc(N2CCN(CCCCNC(=O)N3CCN(c4ccc(C#N)cc4)CC3)CC2)cc(C(F)(F)F)n1

Reply:
[1350, 536, 1130, 4600, 281, 1050, 560, 342]

Fill in Ki for each of the 2 compounds listed.
1. O=C(NCCCCN1CCN(c2cc(C(F)(F)F)nc3ccccc23)CC1)N1CCN(c2ccccc2)CC1
2. CC(C)(C)c1cc(N2CCN(CCCCNC(=O)N3CCc4[nH]c5ccccc5c4C3)CC2)nc(C(C)(C)C)n1

Reply:
1. 7250
2. 308
